System: HepG2
protocol: cytotoxicity call (relative viability < 0.9)
details: 10 µM
About 3,300 (8.5%) of roughly 39,000 compounds were called active. The list comes from a sample in which actives are over-represented; it also holds close analogues and randomly drawn compounds.
Choose one outcome from this list and give only that: label 1 (active), label 0 (inactive)

Here are 2 compounds together with their reported answers.
CCC1OC(=O)C(C)C(OC2CC(C)(OC)C(O)C(C)O2)C(C)C(OC2OC(C)CC(N(C)C)C2O)C(C)(O)CC(C)CN(C)C(C)C(O)C1(C)O (centres undefined) : label 0
CC(C)NC(=O)N(C)C[C@@H]1Oc2cc(C#Cc3cccc(F)c3)ccc2S(=O)(=O)N([C@@H](C)CO)C[C@@H]1C : label 0

We next turn to a different compound, shown below.
Task item: Answer briefly: the call reported for COc1ccc2c3c([nH]c2c1)[C@H](CO)N(Cc1ccc(cc1)Cl)C[C@]13CN(CCc2ccccc2)C1 in this assay.
Reply: label 1

###

Tested on: HepG2
protocol: cytotoxicity call (relative viability < 0.9)
details: 10 µM
Among all 39,000 compounds or so, about 3,300 (8.5%) were called active. This is one part of a sample in which actives are shown more often than they occur.
Choose one outcome from this list and give only that: active, inactive

Here are 5 molecules together with their reported answers.
COc1ccc(S(=O)(=O)Nc2ccc3c(c2)CC(=O)N([C@@H](C)CO)C[C@H](C)[C@@H](CN(C)Cc2ccc(-c4ccccc4)cc2)O3)cc1 : inactive
C[C@@H]1CN([C@H](C)CO)S(=O)(=O)c2ccc(C#Cc3ccccc3F)cc2O[C@@H]1CN(C)C(=O)Cc1cccnc1 : inactive
C[C@H](CO)N1C[C@H](C)[C@H](CN(C)C(=O)Nc2ccccc2)OCCCC[C@H](C)Oc2ccc(NC(=O)CCC(F)(F)F)cc2C1=O : inactive
C[C@@H]1CN([C@H](C)CO)C(=O)c2cc(NS(=O)(=O)c3cn(C)cn3)ccc2O[C@H]1CN(C)Cc1ccc(C(=O)O)cc1 : inactive
C[C@@H]1CCCCO[C@H](CN(C)S(=O)(=O)c2ccccc2)[C@H](C)CN([C@H](C)CO)C(=O)c2cc(NS(=O)(=O)c3ccc(Cl)cc3)ccc2O1 : inactive

Task item: Answer briefly: the call reported for NCCCC[C@H](NC(=O)[C@@H]1CCCN1C(=O)[C@@H]1CSSC[C@H](N)C(=O)N[C@@H](Cc2ccc(O)cc2)C(=O)N[C@@H](Cc2ccccc2)C(=O)N[C@@H](CCC(N)=O)C(=O)N[C@@H](CC(N)=O)C(=O)N1)C(=O)NCC(N)=O in this assay.
Reply: inactive

Task item: Answer briefly: the call reported for C[C@@H]1CN([C@@H](C)CO)S(=O)(=O)c2ccc(C#Cc3ccccc3F)cc2O[C@H]1CN(C)C(=O)Cc1cccnc1 in this assay.
Reply: inactive

Task item: Answer briefly: the call reported for COc1ccc(S(=O)(=O)Nc2ccc3c(c2)CC(=O)N([C@H](C)CO)C[C@H](C)[C@H](CN(C)Cc2ccc(-c4ccccc4)cc2)O3)cc1 in this assay.
Reply: active

Task item: Answer briefly: the call reported for C[C@@H]1CN([C@@H](C)CO)C(=O)c2c(c3ccccc3n2C)-c2ccccc2CO[C@H]1CN(C)C(=O)Nc1cccc(Cl)c1Cl in this assay.
Reply: inactive

Task item: Answer briefly: the call reported for CC(C)CC#Cc1ccc2c(c1)O[C@@H](CN(C)CC1CCOCC1)[C@@H](C)CN([C@H](C)CO)S2(=O)=O in this assay.
Reply: inactive

Task item: Answer briefly: the call reported for CCCCCCCCCCCCCCCCCCOC[C@H](COP(=O)(O)O[C@H]1[C@@H](O)[C@@H](O)[C@@H](O)C[C@@H]1OC)OC in this assay.
Reply: inactive

###

Tested on: HepG2
protocol: cytotoxicity call (relative viability < 0.9)
details: 10 µM
Among all 39,000 compounds or so, about 3,300 (8.5%) were called active. This excerpt belongs to a sample that is enriched for actives.
Choose one outcome from this list and give only that: active, inactive

C[C@H]1CN([C@@H](C)CO)C(=O)Cc2cc(NC(=O)Nc3ccc4c(c3)OCO4)ccc2O[C@@H]1CN(C)Cc1ccc(-c2ccccc2)cc1 : active

Task item: Answer briefly: the call reported for C[C@@H]1CCCCO[C@@H](CN(C)S(=O)(=O)c2cccs2)[C@H](C)CN([C@H](C)CO)C(=O)c2cc(NS(=O)(=O)c3cn(C)cn3)ccc2O1 in this assay.
Reply: inactive

Task item: Answer briefly: the call reported for CS(=O)(=O)Nc1ccc2c(c1)[C@@H]1C[C@@H](CC(=O)NCc3ccc(-c4ccccc4)cc3)O[C@@H](CO)[C@@H]1O2 in this assay.
Reply: inactive

Task item: Answer briefly: the call reported for C[C@H](CO)N1C[C@H](C)[C@@H](CN(C)Cc2ccc(-c3ccccc3)cc2)Oc2ccc(NC(=O)Nc3ccc4c(c3)OCO4)cc2CC1=O in this assay.
Reply: inactive

Task item: Answer briefly: the call reported for C[C@@H]1CCCCO[C@@H](CN(C)S(=O)(=O)c2cn(C)cn2)[C@H](C)CN([C@@H](C)CO)C(=O)c2cc(NC(=O)Nc3cccc4ccccc34)ccc2O1 in this assay.
Reply: inactive

Task item: Answer briefly: the call reported for CCS(=O)(=O)NCC[C@H]1CC[C@H](NC(=O)Cc2ccccn2)[C@@H](CO)O1 in this assay.
Reply: inactive

###

Test system: HepG2
protocol: cytotoxicity call (relative viability < 0.9)
details: 10 µM
Out of some 39,000 compounds screened, about 3,300 (8.5%) were called active. Many of the other results were omitted from the sample, so actives are more common in it than they were.
result_type: cytotoxicity call

COc1ccc(S(=O)(=O)Nc2cccc3c2O[C@H](CN(C)S(=O)(=O)c2c(C)noc2C)[C@@H](C)CN([C@H](C)CO)C3=O)cc1 : inactive
C[C@@H]1CCCCO[C@@H](CN(C)Cc2ccccc2)[C@H](C)CN([C@H](C)CO)C(=O)c2cc(NC(=O)NC3CCCCC3)ccc2O1 : inactive
C[C@H]1CN([C@@H](C)CO)C(=O)c2cccc(NC(=O)Nc3cccc4ccccc34)c2O[C@@H]1CN(C)S(=O)(=O)c1ccc(Cl)cc1 : inactive
O=C(C[C@H]1CC[C@@H]2[C@H](COC[C@H](O)CN2C(=O)c2ccc3c(c2)OCO3)O1)NCCN1CCCCC1 : inactive
CNC(=O)C[C@H]1CC[C@H]2[C@@H](COC[C@@H](O)CN2C(=O)c2ccc3c(c2)OCO3)O1 : inactive

Task item: If you can, please state the reported cytotoxicity call value of CC(C)NC(=O)Nc1ccc2c(c1)C(=O)N([C@@H](C)CO)C[C@H](C)[C@H](CN(C)C(=O)NC1CCCCC1)O2 .
Reply: inactive

Task item: If you can, please state the reported cytotoxicity call value of C[C@@H]1CCCCO[C@H](CN(C)Cc2ccncc2)[C@H](C)CN([C@@H](C)CO)C(=O)c2cc(NC(=O)NC3CCCCC3)ccc2O1 .
Reply: active

Task item: If you can, please state the reported cytotoxicity call value of C[C@H]1CN([C@@H](C)CO)C(=O)c2cccc(NC(=O)Nc3cccc4ccccc34)c2O[C@@H]1CN(C)S(=O)(=O)c1ccc(F)cc1 .
Reply: active

Task item: If you can, please state the reported cytotoxicity call value of C[C@@H]1CN([C@H](C)CO)C(=O)c2cc(NC(=O)Nc3ccc(F)cc3)ccc2O[C@@H](C)CCCCO[C@H]1CN(C)Cc1ccc(Cl)c(Cl)c1 .
Reply: active

Task item: If you can, please state the reported cytotoxicity call value of C[C@@H]1CCCCO[C@@H](CN(C)Cc2ccccc2)[C@@H](C)CN([C@@H](C)CO)C(=O)c2cc(NC(=O)NC3CCCCC3)ccc2O1 .
Reply: active

###

Tested on: HepG2
protocol: cytotoxicity call (relative viability < 0.9)
details: 10 µM
About 3,300 (8.5%) of roughly 39,000 compounds were called active. The full list was thinned out, with actives kept by preference.
Choose one outcome from this list and give only that: true (1) for active, false (0) for inactive

Here are 6 molecules together with their reported answers.
C[C@@H]1CN([C@H](C)CO)C(=O)c2cc(NC(=O)C3CCCCC3)ccc2O[C@@H](C)CCCCO[C@H]1CN(C)C(=O)Nc1ccc2c(c1)OCO2 : false (0)
C[C@H]1CN([C@@H](C)CO)S(=O)(=O)c2ccc(-c3ccc(F)cc3)cc2O[C@@H]1CN(C)S(C)(=O)=O : false (0)
C[C@H](CO)N1C[C@H](C)[C@@H](CN(C)Cc2ccc(C(F)(F)F)cc2)Oc2ccc(NC(=O)Nc3ccc4c(c3)OCO4)cc2CC1=O : false (0)
C[C@@H]1CCCCO[C@@H](CN(C)C(=O)Nc2ccccc2)[C@@H](C)CN([C@@H](C)CO)C(=O)c2cc(NC(=O)CCC(F)(F)F)ccc2O1 : false (0)
CCCCN1CC=C[C@@]23O[C@@H]4C=CCCOC(=O)[C@@H]4[C@H]2C(=O)N([C@@H](C)CO)[C@@H]3C1=O : false (0)
C[C@@H]1CCCCO[C@@H](CN(C)Cc2ccc(Cl)c(Cl)c2)[C@@H](C)CN([C@H](C)CO)C(=O)c2cc(NC(=O)Cc3ccccc3)ccc2O1 : true (1)

We next turn to a different molecule, shown below.
Task item: Answer briefly: the call reported for C[C@H](CO)N1C[C@H](C)[C@@H](CN(C)Cc2ccc3c(c2)OCO3)OCCCC[C@H](C)Oc2ccc(NC(=O)c3ccccc3)cc2C1=O in this assay.
Reply: false (0)
